- TARGET: Polyketide synthase Pks13 (Mycobacterium tuberculosis (strain ATCC 25618 / H37Rv))
- METHOD: Mycobacterium tuberculosis Polyketide synthase 13 Thioesterase (PKS13)
- Type: functional
- Design: scale not given: in the data most compounds retested in dose-response had high values
- EXPERIMENTAL PARAMETERS: 30 µM
Among all 67,000 compounds or so, about 300 (0.45%) showed an effect of 50% or more. The list comes from a sample in which strong results are over-represented; it also holds close analogues and randomly drawn compounds.
Parameter: Percent Effect. Scope: all listed entries.
MEASUREMENT TYPE: Percent Effect

In [3]: df
Out[3]:
                            chemical_string  measurement_type  reading
0        CCOC1CC2(CCN(C(=O)Cc3ccccn3)CC2)C1    Percent Effect    58.6%
1  Cn1cccc1-c1cc(C(=O)NCCCc2csc(N)n2)[nH]n1    Percent Effect     3.3%
2     Cn1ccc(C(=O)NC2CCN(c3ncccn3)CC2)cc1=O    Percent Effect    71.3%
3  COc1ccc2nc(C3CC3)cc(C(=O)NCc3ncnn3C)c2c1    Percent Effect   -6.17%
4  CCc1ccc(CN2CCN(Cc3ncc[nH]3)[C@H]3CS(=O)(=O)C[C@H]32)nc1    Percent Effect   -7.95%

----------
- TARGET: Polyketide synthase Pks13 (Mycobacterium tuberculosis (strain ATCC 25618 / H37Rv)) (UniProt I6X8D2)
- Sequence (I6X8D2 whole entry): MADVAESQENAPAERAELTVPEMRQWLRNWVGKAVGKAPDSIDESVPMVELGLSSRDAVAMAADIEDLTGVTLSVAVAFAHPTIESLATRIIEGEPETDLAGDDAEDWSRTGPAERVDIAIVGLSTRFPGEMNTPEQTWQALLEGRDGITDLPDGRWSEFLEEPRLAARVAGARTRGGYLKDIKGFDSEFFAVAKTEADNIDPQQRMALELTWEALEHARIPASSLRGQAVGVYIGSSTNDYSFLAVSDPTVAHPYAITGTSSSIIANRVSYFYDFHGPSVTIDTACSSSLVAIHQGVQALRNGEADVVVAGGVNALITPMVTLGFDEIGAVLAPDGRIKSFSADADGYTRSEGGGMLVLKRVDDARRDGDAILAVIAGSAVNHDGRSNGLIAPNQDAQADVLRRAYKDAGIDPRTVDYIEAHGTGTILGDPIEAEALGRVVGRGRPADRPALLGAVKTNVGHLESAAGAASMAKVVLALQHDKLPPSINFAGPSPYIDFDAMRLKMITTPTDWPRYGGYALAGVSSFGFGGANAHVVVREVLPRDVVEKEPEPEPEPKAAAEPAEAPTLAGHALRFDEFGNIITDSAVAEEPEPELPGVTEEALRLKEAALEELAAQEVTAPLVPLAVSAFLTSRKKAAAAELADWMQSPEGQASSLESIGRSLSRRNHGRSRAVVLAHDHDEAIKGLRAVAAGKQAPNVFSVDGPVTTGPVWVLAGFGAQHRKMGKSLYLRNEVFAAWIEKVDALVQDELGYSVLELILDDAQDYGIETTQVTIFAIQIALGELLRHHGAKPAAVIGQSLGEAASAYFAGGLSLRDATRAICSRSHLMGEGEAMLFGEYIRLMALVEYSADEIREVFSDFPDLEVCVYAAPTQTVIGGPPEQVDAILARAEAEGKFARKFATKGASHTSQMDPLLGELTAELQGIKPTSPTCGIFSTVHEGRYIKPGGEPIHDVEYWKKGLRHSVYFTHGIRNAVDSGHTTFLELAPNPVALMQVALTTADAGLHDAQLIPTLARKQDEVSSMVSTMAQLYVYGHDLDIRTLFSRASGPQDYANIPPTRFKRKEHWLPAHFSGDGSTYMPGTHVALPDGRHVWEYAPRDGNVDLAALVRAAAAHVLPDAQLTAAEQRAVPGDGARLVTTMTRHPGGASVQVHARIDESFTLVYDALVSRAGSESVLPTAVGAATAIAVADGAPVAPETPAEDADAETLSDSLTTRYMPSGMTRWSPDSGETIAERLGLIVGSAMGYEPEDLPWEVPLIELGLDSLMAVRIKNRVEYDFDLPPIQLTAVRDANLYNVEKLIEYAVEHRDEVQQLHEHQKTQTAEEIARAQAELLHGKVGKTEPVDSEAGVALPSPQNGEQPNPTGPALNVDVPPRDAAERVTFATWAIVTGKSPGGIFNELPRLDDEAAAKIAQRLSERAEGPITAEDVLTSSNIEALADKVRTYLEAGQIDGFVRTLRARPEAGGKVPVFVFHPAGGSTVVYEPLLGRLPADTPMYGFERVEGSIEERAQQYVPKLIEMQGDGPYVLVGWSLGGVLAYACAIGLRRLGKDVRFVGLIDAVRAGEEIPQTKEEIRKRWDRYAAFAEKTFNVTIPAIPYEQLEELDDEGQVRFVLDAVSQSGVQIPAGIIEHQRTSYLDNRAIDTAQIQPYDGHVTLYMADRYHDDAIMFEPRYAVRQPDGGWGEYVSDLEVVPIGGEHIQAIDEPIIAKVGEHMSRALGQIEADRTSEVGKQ
- METHOD: Mycobacterium tuberculosis Polyketide synthase 13 Thioesterase (PKS13)
- Type: functional
- Design: scale not given: in the data most compounds retested in dose-response had high values
- EXPERIMENTAL PARAMETERS: 30 µM
Out of some 67,000 compounds screened, about 300 (0.45%) showed an effect of 50% or more. The sample holds strong results, similar compounds and a random draw of the others, so the mix is not that of the screen.
MEASUREMENT TYPE: Percent Effect (%)

>>> df
                                   compound  measurement_type  reading
0  CCc1nc2n(n1)CC(NCc1ncc(-c3ccccc3)o1)CC2 (stereo not drawn)    Percent Effect      108
1  COCCN1C[C@H]2[C@@H](C1)N(C(=O)COc1ccccc1)CC[C@H]2OC    Percent Effect    -22.6
2   CN(Cc1noc(C(C)(C)C)n1)Cc1ccccc1N1CCCCC1    Percent Effect      1.5

----------
- TARGET: Polyketide synthase Pks13 (Mycobacterium tuberculosis (strain ATCC 25618 / H37Rv))
- METHOD: Mycobacterium tuberculosis Polyketide synthase 13 Thioesterase (PKS13)
- Assay type: functional
- Design: scale not given: in the data most compounds retested in dose-response had high values
- EXPERIMENTAL PARAMETERS: 30 µM
In all, about 67,000 compounds went through this assay and about 300 (0.45%) showed an effect of 50% or more. The list comes from a sample in which strong results are over-represented; it also holds close analogues and randomly drawn compounds.
Each record here notes measured Percent Effect.
MEASUREMENT TYPE: Percent Effect

>>> print(df.to_string())
                                    molecule  reading
 0  CCC1(C)Cc2ccccc2-c2nc(NCCCO)nc(O)c21 (stereo not drawn)    37.9%
 1  COCCN1CCCC2(CCN(c3ncnc(C)c3C)C2)C1=O (stereo not drawn)    6.43%
 2  Clc1ccc(-c2nnc([C@H]3CCN(C4CCCCC4)C3)o2)cc1   -3.49%
 3  CC1CCN(S(=O)(=O)c2cccn(CC(=O)NC3CCCC3)c2=O)CC1    3.17%
 4  O=c1[nH]c(NCCCO)nc2c1C1(CCCC1)Cc1ccccc1-2    55.4%
 5  Cc1cccc(CN2C(=O)CC[C@@H]3[C@H]2CCN3Cc2nccn2C)n1   -58.5%
 6  COC(=O)Cn1cccc(S(=O)(=O)N2CCC(C)CC2)c1=O    50.5%
 7  CCC1(C)Cc2ccccc2-c2nc(NCCO)nc(O)c21 (stereo not drawn)    55.8%
 8  CC1CCN(S(=O)(=O)c2cccn(CC(=O)NC(C)(C)C)c2=O)CC1    -9.8%
 9    OCCCNc1nc(O)c2c(n1)-c1ccccc1CC21CCCCC1    13.8%
10    CC1(C)Cc2ccccc2-c2nc(NCCO)[nH]c(=O)c21    88.1%
11  CC1=N[C@@]2(CC[C@@H]3CN(CC(=O)N(C)C)C[C@@H]32)C(=O)N1CC(C)C   -5.03%
12  COCCN1CCCC2(CCN(c3nccnc3N(C)C)C2)C1=O (stereo not drawn)    60.4%
13  CN(C)c1ccc(-c2nnc([C@H]3CCN(C4CCCCC4)C3)o2)cc1    58.9%
14  Cc1oncc1C(=O)N1CC[C@@H]2[C@@H]1CC(=O)N2Cc1cccnc1    10.2%
15  Cc1cc(CN2CC[C@H]3C[C@H](C)O[C@@H]3C2)no1   -27.6%
16       CC(C)(CO)CCCNC(=O)NC1(C)Cc2ccccc2C1   0.272%
17  O=c1[nH]c(NCCO)nc2c1C1(CCCC1)Cc1ccccc1-2    12.1%
